Test system: Plasmodium falciparum
Experiment: Antimalarial activity against chloroquine-sensitive Plasmodium falciparum RKL-2 assessed as dead rings and schizonts at 100 ug/ml after 36 to 40 hr incubation by Giemsa staining
Assay type: functional
QUANTITY KIND: Activity

{"columns": ["STRUCTURE AS SMILES", "RESULT"],
 "data": [
  ["CC(C)NCc1cc(Nc2ccnc3cc(Cl)ccc23)ccc1O", "6.5%"],
  ["CC(C)N(Cc1cc(Nc2ccnc3cc(Cl)ccc23)ccc1O)C(C)C", "3%"],
  ["CCCCN(CCCC)Cc1cc(Nc2ccnc3cc(Cl)ccc23)ccc1O", "5%"],
  ["CCCNCc1cc(Nc2ccnc3cc(Cl)ccc23)ccc1O", "6.5%"]
]}
